Data credit: patent US11814367B2

Target: hGYS1 enzyme (recombinant hGYS1/GN1 protein) (Homo sapiens (Human), UniProt P13807)
Sequence (P13807 whole entry): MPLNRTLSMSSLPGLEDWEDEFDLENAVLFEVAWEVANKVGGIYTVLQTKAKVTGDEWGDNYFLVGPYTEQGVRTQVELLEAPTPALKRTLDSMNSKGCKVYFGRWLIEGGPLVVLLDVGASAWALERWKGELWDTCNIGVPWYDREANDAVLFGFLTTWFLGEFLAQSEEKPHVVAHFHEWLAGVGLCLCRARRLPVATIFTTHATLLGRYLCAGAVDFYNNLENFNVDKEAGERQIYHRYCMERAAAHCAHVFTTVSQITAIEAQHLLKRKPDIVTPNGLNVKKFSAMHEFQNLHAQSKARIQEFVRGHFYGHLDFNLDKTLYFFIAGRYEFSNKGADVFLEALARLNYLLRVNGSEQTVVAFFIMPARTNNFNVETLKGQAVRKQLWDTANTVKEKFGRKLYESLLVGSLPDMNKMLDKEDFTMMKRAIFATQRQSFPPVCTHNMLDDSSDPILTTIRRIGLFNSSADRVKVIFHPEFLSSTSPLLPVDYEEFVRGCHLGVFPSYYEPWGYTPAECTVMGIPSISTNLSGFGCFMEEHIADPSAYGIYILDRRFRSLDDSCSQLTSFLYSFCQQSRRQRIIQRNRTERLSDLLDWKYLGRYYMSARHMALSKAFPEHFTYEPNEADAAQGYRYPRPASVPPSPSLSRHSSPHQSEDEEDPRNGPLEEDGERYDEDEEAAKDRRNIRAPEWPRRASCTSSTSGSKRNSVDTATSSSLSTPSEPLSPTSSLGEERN
Sequence (P46976 whole entry partner): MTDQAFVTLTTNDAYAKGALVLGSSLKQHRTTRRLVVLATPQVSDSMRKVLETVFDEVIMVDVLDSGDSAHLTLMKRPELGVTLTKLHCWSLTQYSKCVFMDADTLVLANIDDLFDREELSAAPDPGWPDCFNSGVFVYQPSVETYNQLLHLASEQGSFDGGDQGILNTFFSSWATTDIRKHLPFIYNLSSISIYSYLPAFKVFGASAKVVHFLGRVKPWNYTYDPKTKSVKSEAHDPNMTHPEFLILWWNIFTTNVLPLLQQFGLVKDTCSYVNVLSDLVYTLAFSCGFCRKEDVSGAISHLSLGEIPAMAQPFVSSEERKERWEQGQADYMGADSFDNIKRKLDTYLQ
Experiment: GYS1 coupled enzyme assay (PK/LDH)
Conditions: hGYS1/GN1 50 nM, UDP-Glucose 0.8 mM, G6P 1 mM; geometric mean of at least 2 runs
pIC50: −log10 of the molar value.
Listed next: entries and their corresponding pIC50.
readout kind: pIC50

entry_smiles=CC(C)c1ccc([C@@H](NC(=O)[C@@H]2C[C@@H](F)CN2C(=O)Cc2cccnn2)c2ccccc2)cc1F readout_kind=pIC50 endpoint_value=7.57
entry_smiles=O=C(N[C@@H](c1ccccc1)c1ccc(C2CC2)c(F)c1)[C@@H]1C[C@@H](F)CN1C(=O)CNC(=O)N1CCN(CC(F)(F)F)CC1 readout_kind=pIC50 endpoint_value=7.17
entry_smiles=Cc1nn(CC(=O)N2C[C@H](F)C[C@H]2C(=O)N[C@@H](c2ccccc2)c2ccc(C3CC3)c(F)n2)c(=O)o1 readout_kind=pIC50 endpoint_value=7.43
entry_smiles=CC(=O)N1C[C@@H]2[C@@H](C(=O)N3C[C@H](F)C[C@H]3C(=O)N[C@@H](c3ccccc3)c3ccc(C(C)C)cc3)CO[C@@H]2C1 readout_kind=pIC50 endpoint_value=6.44
entry_smiles=O=C(N[C@@H](c1ccccc1)c1ccc(C2CC2)c(F)n1)[C@@H]1C[C@@H](F)CN1C(=O)Cn1nncc1N1CC(F)(F)C1 readout_kind=pIC50 endpoint_value=7.49
entry_smiles=CCn1cc(C)cc(CC(=O)N2C[C@H](F)C[C@H]2C(=O)N[C@@H](c2ccccc2)c2ccc(C3CC3)c(F)n2)c1=O readout_kind=pIC50 endpoint_value=8.05
entry_smiles=CC(C)c1ccc([C@@H](NC(=O)[C@@H]2C[C@@H](F)CN2C(=O)Cn2cc(N(C)C)nn2)c2ccccc2)nc1F readout_kind=pIC50 endpoint_value=8.10
entry_smiles=Cn1c(=O)ccn(CC(=O)N2C[C@H](F)C[C@H]2C(=O)N[C@@H](c2ccccc2)c2ccc(C3(C)CC3)c(F)c2)c1=O readout_kind=pIC50 endpoint_value=7.18
entry_smiles=CC(C)c1ccc([C@@H](NC(=O)[C@@H]2C[C@@H](F)CN2C(=O)CN2CCNCC2)c2ccccc2)cc1 readout_kind=pIC50 endpoint_value=6.16
entry_smiles=Cc1nn(C)c(C)c1CC(=O)N1C[C@H](F)C[C@H]1C(=O)N[C@@H](c1ccccc1)c1ccc(C(C)C)cc1 readout_kind=pIC50 endpoint_value=8.05
entry_smiles=CC(=O)N1CC[C@H](O)[C@H]1C(=O)N[C@@H](c1ccccc1)c1ccc(C(C)C)cc1 readout_kind=pIC50 endpoint_value=5.60
entry_smiles=CC(C)c1ccc([C@@H](NC(=O)[C@@H]2C[C@@H](F)CN2C(=O)Cn2cc(C(F)(F)F)nn2)c2ccccc2)cc1F readout_kind=pIC50 endpoint_value=7.44
entry_smiles=CC(C)c1ccc([C@@H](NC(=O)[C@@H]2C[C@@H](F)CN2C(=O)Cc2ccccn2)c2ccccc2)cc1F readout_kind=pIC50 endpoint_value=7.60
